Where do the numbers come from? From PubChem BioAssay AID788.

System: S. cerevisiae vps1Δ apl2Δ growth inhibition, dose response
Protocol: growth inhibition of vps1Δ apl2Δ yeast, dose response, post-Golgi transport modulator project, S. cerevisiae, background strain comparison (AID 788)
Calls of active or inactive are those of the source. The rule behind the calls is not given here.
Answer with one of the outcomes given here: class 1 = active, class 0 = inactive

Molecule: C=CCc1ccccc1OCC(O)CN1CCN(Cc2ccc3c(c2)OCO3)CC1 (stereo unspecified)
Tgt: S. cerevisiae vps1Δ apl2Δ growth inhibition, dose response
Class Assignment: class 1
--
Molecule: CCOC(=O)c1c(NC(=O)CN2CCCCC2)sc2c1CCC(C=O)=C2Cl
Tgt: S. cerevisiae vps1Δ apl2Δ growth inhibition, dose response
Class Assignment: class 0
--
Molecule: CC(C)Oc1ccc(/C(O)=C2/C(=O)C(=O)N(CCN(C)C)C2c2ccco2)cc1 (stereo unspecified)
Tgt: S. cerevisiae vps1Δ apl2Δ growth inhibition, dose response
Class Assignment: class 0
--
Molecule: CCc1n[nH]c2c1/C(=N\O)CC(C)(C)C2
Tgt: S. cerevisiae vps1Δ apl2Δ growth inhibition, dose response
Class Assignment: class 0
--
Molecule: COc1ccccc1N1CCN(Cc2ccccc2F)CC1
Tgt: S. cerevisiae vps1Δ apl2Δ growth inhibition, dose response
Class Assignment: class 0
--
Molecule: O=C(NCCc1ccccc1)C1CCN(S(=O)(=O)N2CCCC2)CC1
Tgt: S. cerevisiae vps1Δ apl2Δ growth inhibition, dose response
Class Assignment: class 0
--
Molecule: O=C(Nc1nnc(C2CC2)o1)c1ccc(S(=O)(=O)N2CCCc3ccccc32)cc1
Tgt: S. cerevisiae vps1Δ apl2Δ growth inhibition, dose response
Class Assignment: class 0
--
Molecule: N=c1c2c(-c3ccccc3)c(-c3ccccc3)n(Cc3ccco3)c2ncn1Cc1ccco1
Tgt: S. cerevisiae vps1Δ apl2Δ growth inhibition, dose response
Class Assignment: class 1
--
Molecule: CCOCCCNC(=O)c1cc2sc(Cl)cc2n1CC
Tgt: S. cerevisiae vps1Δ apl2Δ growth inhibition, dose response
Class Assignment: class 0
--
Molecule: O=C(N/N=C/c1ccc([N+](=O)[O-])o1)c1cc(-c2cccc(Br)c2)nc2ccccc12
Tgt: S. cerevisiae vps1Δ apl2Δ growth inhibition, dose response
Class Assignment: class 1

Moving on to another molecule below.
Query string: # fetch the recorded call for Cc1ccc(NS(=O)(=O)c2cc(C(=O)N3CCOCC3)ccc2C)cc1 here
Result string: class 0

----------
Tested on: S. cerevisiae vps1Δ apl2Δ growth inhibition, dose response
Protocol: growth inhibition of vps1Δ apl2Δ yeast, dose response, post-Golgi transport modulator project, S. cerevisiae, background strain comparison (AID 788)
The source made the active and inactive calls. No rule for the calls is given here.
Documented IC50 across a set of molecules

Molecule: Cc1ccc(-n2cc3c(-c4cccc(Br)c4)nnc(C)c3n2)cc1
Reported Metric: IC50
Result Value: 1.94 µM
//
Molecule: Cc1ccc(S(=O)(=O)N2CC3CC(C2)c2cccc(=O)n2C3)cc1 (stereo unspecified)
Reported Metric: IC50
Result Value: > 10 µM (inactive)
//
Molecule: N#Cc1ccccc1Cn1cc(C(=O)c2cccs2)c2ccccc21
Reported Metric: IC50
Result Value: > 10 µM (inactive)
//
Molecule: COc1ccc(/C=C2\SC(=S)N(NC(=O)c3csc4c3CCCC4)C2=O)cc1
Reported Metric: IC50
Result Value: > 10 µM (inactive)
//
Molecule: Cc1cc(Cl)cc(C)c1OCCCCN1CCOCC1
Reported Metric: IC50
Result Value: > 10 µM (inactive)
//
Molecule: O=[N+]([O-])c1cc(Cl)cc(/C=N\Nc2ccccn2)c1O
Reported Metric: IC50
Result Value: 9.68 µM
//
Molecule: Cc1ccc(N2CCN(S(=O)(=O)N3CCCCCC3)CC2)cc1Cl
Reported Metric: IC50
Result Value: > 10 µM (inactive)
//
Molecule: O=C(CN1CCN(c2ccccn2)CC1)Nc1ccc(Oc2ccccc2)cc1
Reported Metric: IC50
Result Value: > 10 µM (inactive)
//
Molecule: CCOc1ccc(NC(=O)N(C2CCCCC2)C(C)c2cccnc2)cc1 (stereo unspecified)
Reported Metric: IC50
Result Value: 15 µM
//
Molecule: Cc1ccc(S(=O)(=O)N2CCN(C3CCN(Cc4ccccc4)CC3)CC2)cc1
Reported Metric: IC50
Result Value: 24.5 µM

Okay, next one:
get_value(item= OC(Cn1ccnc1)c1ccc(Cl)cc1Cl (stereo unspecified) , readout=IC50) returns > 10 µM (inactive)

----------
Test system: S. cerevisiae vps1Δ apl2Δ growth inhibition, dose response
Protocol: growth inhibition of vps1Δ apl2Δ yeast, dose response, post-Golgi transport modulator project, S. cerevisiae, background strain comparison (AID 788)
The source made the active and inactive calls. How the calls were made is not given here.
Field 'call' accepts True = active, False = inactive

Answered examples (2):
Compound: N[C@@H](Cc1c[nH]c2ccccc12)c1nnc(SCc2ccc(Cl)cc2)o1
Class Assignment: False
//
Compound: CC1CCC(C(C)C)C(OCC(O)CN2CCN(Cc3ccccc3)CC2)C1 (stereo not drawn)
Class Assignment: True

Query string: State the result this test recorded for CC(=O)Nc1ccccc1NS(=O)(=O)c1ccc(Cl)cc1 .
Result string: False

----------
Tested on: S. cerevisiae vps1Δ apl2Δ growth inhibition, dose response
Protocol: growth inhibition of vps1Δ apl2Δ yeast, dose response, post-Golgi transport modulator project, S. cerevisiae, background strain comparison (AID 788)
The source made the active and inactive calls. How the calls were made is not given here.
I would appreciate it if you answered using one of these outcomes: t = active, f = inactive

Examples with answers:
Compound: Cc1cccnc1Nc1nc(-c2ccccn2)cs1
Tgt: S. cerevisiae vps1Δ apl2Δ growth inhibition, dose response
Class Assignment: t
//
Compound: O=C(Nc1nc(-c2ccccn2)cs1)c1ncc(Cl)c(Cl)c1Cl
Tgt: S. cerevisiae vps1Δ apl2Δ growth inhibition, dose response
Class Assignment: t
//
Compound: N#CC1=C2SCC(O)(c3ccccc3)N2C(=O)CC1c1ccccc1 (stereo unspecified)
Tgt: S. cerevisiae vps1Δ apl2Δ growth inhibition, dose response
Class Assignment: f
//
Compound: CCCC(=O)Nc1ccc(Cl)c(NC(=O)c2cccnc2Cl)c1
Tgt: S. cerevisiae vps1Δ apl2Δ growth inhibition, dose response
Class Assignment: f
//
Compound: COc1ccc(NC(=O)c2ccc(CN3CCN(c4ccccc4)CC3)cc2)cc1
Tgt: S. cerevisiae vps1Δ apl2Δ growth inhibition, dose response
Class Assignment: f
//
Compound: Cc1nc(NC(=O)c2ccccc2)sc1-c1csc(Nc2ccc(F)cc2)n1
Tgt: S. cerevisiae vps1Δ apl2Δ growth inhibition, dose response
Class Assignment: f

Query string: Any idea what this test logged for CCn1c(-c2c[nH]c3ccccc23)n[nH]c1=S ?
Result string: f

Query string: Recorded call for Cc1cc(OCC(F)(F)C(F)(F)C(F)(F)C(F)(F)C(F)(F)C(F)F)nc(N)n1 ?
Result string: f

Query string: Please state the recorded outcome for this compound: COc1ccc(C2=NC(C(F)(F)F)(C(F)(F)F)c3c(n(C)c(=O)n(C)c3=O)N2)cc1
Result string: f

Query string: For CSc1ncccc1C(=O)OCC(=O)N1CCOCC1 , what call appears in the results of this test?
Result string: f

Query string: How did this test come out for Fc1ccc(Cn2nnc(-c3ccc(CN4CCOCC4)cc3)n2)cc1 ?
Result string: t

----------
System: S. cerevisiae vps1Δ apl2Δ growth inhibition, dose response
Protocol: growth inhibition of vps1Δ apl2Δ yeast, dose response, post-Golgi transport modulator project, S. cerevisiae, background strain comparison (AID 788)
Activity calls are given as the source filed them. The rule behind the calls is not given here.
Permitted responses: active, inactive

Molecule: CCCCS(=O)(=O)/C=C\C=C/S(=O)(=O)CCCC
Class Assignment: active
--
Molecule: Cc1nc(NC(=O)c2ccccc2)sc1-c1csc(NCc2ccccc2)n1
Class Assignment: active
--
Molecule: CC(=O)NC1C(c2nc3ccccc3s2)=C(c2ccccc2)C(=O)N1c1ccc(C)cc1 (configuration not stated)
Class Assignment: inactive
--
Molecule: C=CCc1ccc(OCC(O)CN2CCC(Cc3ccccc3)CC2)c(OC)c1 (configuration not stated)
Class Assignment: active
--
Molecule: CCCCCCCCNc1ncnc2ccccc12
Class Assignment: inactive
--
Molecule: O=C(COc1ccc(Cl)cc1Cl)N1CCN(C/C=C/c2ccccc2)CC1
Class Assignment: active
--
Molecule: COc1ccccc1N1CCN(CC(O)c2ccc3cc[nH]c3c2)CC1 (configuration not stated)
Class Assignment: inactive
--
Molecule: Cc1cc([N+](=O)[O-])c(-c2ccc(/C=N/n3cnnc3)o2)cc1Cl
Class Assignment: inactive
--
Molecule: O=C(NCc1ccc2c(c1)OCO2)c1ccc(CS(=O)(=O)c2cccc(C(F)(F)F)c2)o1
Class Assignment: inactive
--
Molecule: O=C(OCn1ncc(Cl)c(Cl)c1=O)c1cccc(C(F)(F)F)c1
Class Assignment: inactive

Query string: Could you check what this test reported for O=C(NCC(=O)N(c1cccnc1)C(C(=O)NCc1ccco1)c1ccccc1)c1ccco1 (configuration not stated) ?
Result string: inactive

Query string: GET /call?item= O=C(C1COc2ccccc2O1)N1CCN(Cc2ccc3c(c2)OCO3)CC1 (configuration not stated) returns the recorded outcome of this test.
Result string: active

Query string: Returns: the outcome recorded for O=C(COc1ccc(Br)cc1F)NC1CCN(Cc2ccccc2)CC1 in this assay.
Result string: active

Query string: Please state the recorded outcome for this molecule: Cc1nn(Cc2cccc(C(=O)NC(C)c3ccc(C(C)(C)C)cc3)c2)c(C)c1[N+](=O)[O-] (configuration not stated)
Result string: inactive

Query string: So what was the verdict on Clc1ccc(-c2n[nH]c3c2CCC3)c(Cl)c1 in this test?
Result string: inactive

Query string: Returns: the outcome recorded for O=C(NCCSCc1ccc(Cl)cc1Cl)c1ccc(CN2CCOCC2)cc1 in this assay.
Result string: active

Query string: // param item: O=S(=O)(NCC(c1cccnc1)N1CCN(c2ccccc2)CC1)c1cccs1 (configuration not stated) ; yields the recorded call
Result string: active

Query string: Write down the call the test reported for this molecule. Item: O=C(OCn1ncc(Br)c(Br)c1=O)c1ccc(F)cc1
Result string: active

Query string: // return assay outcome for O=C(O)c1cc(-c2ccc(/C=N/Nc3ccc(Cl)cc3)o2)ccc1Cl
Result string: active

Query string: Status in this test for CCOC(=O)c1ccc(NC(=O)c2cn(-c3ccccc3)nc2-c2ccncc2)cc1 ?
Result string: inactive

Query string: What outcome does the record of this test show for CCOC(=O)Cn1cc(C=O)c2ccccc21 ?
Result string: inactive

Query string: What did the test return for COc1ccc(NC(=O)N(C2CCCCC2)C(C)c2cccnc2)c(OC)c1 (configuration not stated) ?
Result string: active
